# system.name: hBGT1 E52A (Homo sapiens, UniProt P48065, E52A)
# Sequence (P48065 whole entry E52A): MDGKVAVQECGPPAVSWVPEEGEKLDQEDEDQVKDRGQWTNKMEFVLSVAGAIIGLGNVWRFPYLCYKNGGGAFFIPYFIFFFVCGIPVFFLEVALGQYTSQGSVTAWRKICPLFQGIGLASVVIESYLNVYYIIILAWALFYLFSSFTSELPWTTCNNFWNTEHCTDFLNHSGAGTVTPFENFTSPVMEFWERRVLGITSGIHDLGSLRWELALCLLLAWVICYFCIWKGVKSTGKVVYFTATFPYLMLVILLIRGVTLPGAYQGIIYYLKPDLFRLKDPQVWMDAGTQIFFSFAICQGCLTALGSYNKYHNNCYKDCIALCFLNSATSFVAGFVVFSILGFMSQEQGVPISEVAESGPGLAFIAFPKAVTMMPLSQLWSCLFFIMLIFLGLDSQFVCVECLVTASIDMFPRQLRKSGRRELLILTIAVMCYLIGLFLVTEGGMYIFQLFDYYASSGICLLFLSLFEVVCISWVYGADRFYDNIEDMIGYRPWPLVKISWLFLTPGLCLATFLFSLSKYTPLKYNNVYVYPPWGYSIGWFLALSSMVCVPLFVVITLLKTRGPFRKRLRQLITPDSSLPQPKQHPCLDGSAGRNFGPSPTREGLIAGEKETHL
# experiment.summary: cell-based
# test.parameters: IC50 BGT1 E52A, 30 nM [3H]GABA, tsA201 cells, transient expression
pIC50: −log10 of the molar value.
Outcome label depends on pIC50 relative to 4: at/above gives criterion met, below gives criterion not met.

Examples from the recorded data:
{"compound": "NC1=NCC(C(=O)O)CN1 (centres unmarked) [ATPCA, reference compound]", "class.assignment": "criterion met"}
{"compound": "CCN1CC(C(=O)O)CN=C1N.Cl (centres unmarked) [compound 3]", "class.assignment": "criterion met"}
{"compound": "NC1=NC=C(C(=O)O)CN1.O=C(O)C(F)(F)F [compound 11]", "class.assignment": "criterion not met"}

Could you now look at the following compound, please?
Query: Does NC1=NCC(C(=O)O)CC1 (centres unmarked) [compound 2, reference compound] have a reported pIC50 of at least 4?
Result: criterion met

====

# system.name: hGAT3 wt (Homo sapiens, UniProt P48066)
# Construct: expressed in transfected cells; host or cells: tsA201 cells, transient (PolyFect), pcDNA5/FRT vector
# Sequence (P48066 1-632): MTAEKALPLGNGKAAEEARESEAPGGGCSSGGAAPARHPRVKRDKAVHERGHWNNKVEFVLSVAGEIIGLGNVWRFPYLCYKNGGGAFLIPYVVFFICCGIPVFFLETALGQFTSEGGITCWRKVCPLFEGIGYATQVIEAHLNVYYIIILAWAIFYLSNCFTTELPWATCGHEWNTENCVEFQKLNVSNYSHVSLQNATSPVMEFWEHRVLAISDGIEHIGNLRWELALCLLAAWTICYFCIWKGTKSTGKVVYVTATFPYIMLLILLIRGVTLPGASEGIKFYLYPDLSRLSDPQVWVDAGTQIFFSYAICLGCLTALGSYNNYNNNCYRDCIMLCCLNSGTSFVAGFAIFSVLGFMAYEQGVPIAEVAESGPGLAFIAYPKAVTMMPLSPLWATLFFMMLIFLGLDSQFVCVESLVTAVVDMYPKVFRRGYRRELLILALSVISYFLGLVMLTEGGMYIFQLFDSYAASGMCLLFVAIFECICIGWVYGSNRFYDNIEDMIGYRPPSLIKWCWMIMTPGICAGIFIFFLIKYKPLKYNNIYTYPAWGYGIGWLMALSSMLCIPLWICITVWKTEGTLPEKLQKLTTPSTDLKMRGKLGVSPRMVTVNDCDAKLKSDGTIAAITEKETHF
# experiment.summary: [3H]GABA uptake inhibition at wt hGAT3 transiently expressed in tsA201 cells
# Format: cell-based
# test.parameters: 30 nM [3H]GABA, transient expression, read-out: IC50 GAT3 wt
Exercise: for every item that follows, state its recorded pIC50.
One number for each entry, as −log10 of the molar value.

{"compound": "Cl.NC1=NCC(C(=O)O)CN1Cc1ccccc1 (stereo not shown)", "system.name": "hGAT3 wt (Homo sapiens, UniProt P48066)", "pIC50": 3.91}
{"compound": "NC1=NCC(C(=O)O)CN1 (stereo not shown) [ATPCA, reference compound]", "system.name": "hGAT3 wt (Homo sapiens, UniProt P48066)", "pIC50": 3.07}

Recorded result, NCCCC(=O)O [GABA, γ-Aminobutyric acid, reference compound] , pIC50: 5.09

====

# system.name: hGAT3 L314Q (Homo sapiens, UniProt P48066, L314Q)
# Construct: expressed in transfected cells; host or cells: tsA201 cells, transient (PolyFect), pcDNA5/FRT vector
# experiment.summary: [3H]GABA uptake inhibition at hGAT3 L314Q transiently expressed in tsA201 cells
# Format: cell-based
# test.parameters: 30 nM [3H]GABA, transient expression, read-out: IC50 GAT3 L314Q
Would you mind telling me the reported IC50 of each entry?

{"compound": "CCN1CC(C(=O)O)CN=C1N.Cl (stereo not drawn)", "IC50": "> 1000 µM"}
{"compound": "C[C@@H]1N=C(N)NC[C@@H]1C(=O)O (single isomer, unassigned) [l-15a]", "IC50": "> 1000 µM"}

Turning to the following compound.
Input NC1=NC=C(C(=O)O)CN1.O=C(O)C(F)(F)F . Output IC50: > 1000 µM

====

Task for the reader: assign each of the following molecules its reported IC50.
# system.name: hGAT2 (Homo sapiens, UniProt Q9NSD5)
# Construct: expressed in transfected cells
# Sequence (Q9NSD5 1-602): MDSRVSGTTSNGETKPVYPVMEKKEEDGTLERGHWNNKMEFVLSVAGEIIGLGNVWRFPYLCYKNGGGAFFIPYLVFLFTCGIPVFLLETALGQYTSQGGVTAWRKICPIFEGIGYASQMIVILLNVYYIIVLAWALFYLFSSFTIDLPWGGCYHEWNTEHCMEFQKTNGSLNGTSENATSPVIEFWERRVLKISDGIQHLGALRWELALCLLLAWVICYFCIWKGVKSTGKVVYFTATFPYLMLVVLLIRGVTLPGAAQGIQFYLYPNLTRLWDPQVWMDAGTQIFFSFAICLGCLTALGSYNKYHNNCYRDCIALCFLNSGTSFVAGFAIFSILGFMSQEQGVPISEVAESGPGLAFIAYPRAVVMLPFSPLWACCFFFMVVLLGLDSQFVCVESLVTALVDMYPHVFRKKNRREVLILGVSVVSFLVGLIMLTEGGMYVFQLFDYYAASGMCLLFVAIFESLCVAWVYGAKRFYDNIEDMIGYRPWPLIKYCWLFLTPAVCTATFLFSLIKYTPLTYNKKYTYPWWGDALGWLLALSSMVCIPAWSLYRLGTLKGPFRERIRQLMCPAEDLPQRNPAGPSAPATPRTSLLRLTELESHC
# experiment.summary: [3H]GABA uptake inhibition at hGAT2 stably expressed in CHO Flp-In cells
# Assay type: cell-based
# test.parameters: 30 nM [3H]GABA, 3 min, CHO Flp-In cells stably expressing hGAT2; read-out: IC50 hGAT2

Below are worked cases with known answers.
{"molecule": "CC(C)C1N=C(N)NCC1C(=O)O (centres unmarked)", "system.name": "hGAT2 (Homo sapiens, UniProt Q9NSD5)", "IC50": "> 1 mM"}
{"molecule": "C[C@@H]1N=C(N)NC[C@@H]1C(=O)O (single isomer, unassigned) [l-15a]", "system.name": "hGAT2 (Homo sapiens, UniProt Q9NSD5)", "IC50": "> 1 mM"}
{"molecule": "NC1=NCC(C(=O)O)CC1 (centres unmarked) [compound 2, reference compound]", "system.name": "hGAT2 (Homo sapiens, UniProt Q9NSD5)", "IC50": "> 1 mM"}

Below is a list of molecules. For each, state its recorded IC50.
1. NC1=N[C@@H](CCc2ccc(-c3ccccc3)cc2)[C@@H](C(=O)O)CN1 (relative stereo)
2. Cl.NC1=NCC(C(=O)O)CN1Cc1ccccc1 (centres unmarked)
3. O=C(O)C1CN=C(NCCc2ccccc2)NC1 (centres unmarked)
4. NC1=NCC(C(=O)O)CN1Cc1ccc(-c2ccccc2)cc1 (centres unmarked)
5. NC1=NCC(C(=O)O)CN1CCCC(c1ccccc1)c1ccccc1 (centres unmarked)

Result:
["> 1 mM", "0.105 mM", "> 1 mM", "0.382 mM", "> 1 mM"]

====

Give measured pIC50 for each item. Keep answers brief.
# system.name: hGAT2 (Homo sapiens, UniProt Q9NSD5)
# Construct: expressed in transfected cells
# Sequence (Q9NSD5 1-602): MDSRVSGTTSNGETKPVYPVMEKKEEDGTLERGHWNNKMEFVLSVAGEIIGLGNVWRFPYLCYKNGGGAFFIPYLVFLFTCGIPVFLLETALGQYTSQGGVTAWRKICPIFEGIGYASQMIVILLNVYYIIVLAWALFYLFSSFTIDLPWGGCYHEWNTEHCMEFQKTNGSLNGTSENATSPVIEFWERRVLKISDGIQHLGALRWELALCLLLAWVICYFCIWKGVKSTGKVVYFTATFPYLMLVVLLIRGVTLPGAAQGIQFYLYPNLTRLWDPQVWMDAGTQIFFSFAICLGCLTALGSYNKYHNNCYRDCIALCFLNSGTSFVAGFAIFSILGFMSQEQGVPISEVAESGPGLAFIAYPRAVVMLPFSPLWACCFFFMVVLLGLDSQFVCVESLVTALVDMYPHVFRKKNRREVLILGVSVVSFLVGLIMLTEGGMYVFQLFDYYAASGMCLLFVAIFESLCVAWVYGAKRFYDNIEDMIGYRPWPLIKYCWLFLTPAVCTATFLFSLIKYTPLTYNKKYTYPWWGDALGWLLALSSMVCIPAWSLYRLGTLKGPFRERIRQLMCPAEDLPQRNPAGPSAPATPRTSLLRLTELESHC
# experiment.summary: [3H]GABA uptake inhibition at hGAT2 stably expressed in CHO Flp-In cells
# Type: cell-based
# test.parameters: 30 nM [3H]GABA, 3 min, CHO Flp-In cells stably expressing hGAT2; read-out: IC50 hGAT2
pIC50: −log10 of the molar value.

Below: 2 molecules and their reported pIC50.
{"molecule": "NC1=NCC(C(=O)O)CN1CCC(c1ccccc1)c1ccccc1 (stereo not drawn) [compound 6]", "system.name": "hGAT2 (Homo sapiens, UniProt Q9NSD5)", "pIC50": "< 3.00"}
{"molecule": "NC1=NC=C(C(=O)O)CN1.O=C(O)C(F)(F)F [compound 11]", "system.name": "hGAT2 (Homo sapiens, UniProt Q9NSD5)", "pIC50": "< 3.00"}

We now examine a further molecule.
Recorded result, C[C@@H]1N=C(N)NC[C@@H]1C(=O)O (single isomer, unassigned) [l-15b] , pIC50: < 3.00

The origin of these recorded values is paper PMC7400577.
